test: chemical genetic growth profiling, strain panel (AID 1159580);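 note: tested at 20 µM; growth read once vehicle control cultures reached saturation at 30 °C; 1 = growth at the plate median or of vehicle wells; lower values mean less growth of the strain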; conditions: S. cerevisiae deletion strains, growth OD, locus YER002W, strain NOP16, active compounds read low
The whole screen tested about 5,500 compounds, of which about 2,000 (36%) were called active. Roughly 18% stayed inconclusive and do not appear here. The list shows a part of the results.
Assign labels as follows, please: criterion met for normalized growth below 1; criterion not met for normalized growth equal to or exceeding 1.

STRUCTURE SMILES STRING	ASSIGNED CLASS
COc1ccccc1NC(=O)Nc1nc(-c2cccnc2)nc2ccccc12	criterion not met
O=C(O)CC[C@@H](NC(=O)c1ccccc1C(=O)O)C(=O)O	criterion not met
NCCCCN=C(N)N	criterion not met
N#Cc1c(-c2ccccc2)no[n+]1[O-]	criterion met
CCn1cc(C(=O)O)c(=O)c2ccc(Cc3ccccc3)nc21	criterion met
CCN(CCCl)Cc1ccccc1Br	criterion not met
CCn1cc(C(=O)O)c(=O)c2ccc(C)nc21	criterion met
C[C@@](Cc1ccc(O)c(O)c1)(NN)C(=O)O	criterion not met

====

// normalized growth lookup, one value per entry
test: chemical genetic growth profiling, strain panel (AID 1159580);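 note: tested at 20 µM; growth read once vehicle control cultures reached saturation at 30 °C; 1 = growth at the plate median or of vehicle wells; lower values mean less growth of the strain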; details: S. cerevisiae deletion strains, growth OD, locus YER155C, strain BEM2, active compounds read low
About 2,000 (36%) of roughly 5,500 compounds were called active. Not shown: some 18% with an inconclusive outcome. This is one part of the list.
PROPERTY: normalized growth

> print(dat)
                                    compound           property  readout.value
 1  O=C(O)CCCCC1SCC2NC(=O)NC21 (stereo not drawn)  normalized growth          0.999
 2                        O=C(O)CNCP(=O)(O)O  normalized growth           1.01
 3  CCOC(=O)CCCCCCCCCCCCC1C=CCC1 (stereo not drawn)  normalized growth         0.0734
 4  C=CCN1CC[C@]23c4c5ccc(O)c4OC2C(=O)CC[C@@]3(O)[C@H]1C5 (stereo partly drawn)  normalized growth           1.01
 5  O=C(O)CCCCCCCCCCCCC1C=CCC1 (stereo not drawn)  normalized growth          0.745
 6         COc1ccccc1-c1cc(=O)c2c(OC)cccc2o1  normalized growth           1.01
 7  CC1=C(/C=C/C(C)=C/C=C/C(C)=C/CO)C(C)(C)CCC1  normalized growth           1.01
 8  CC12CCC3C(CC=C4CC(O)CCC43C)C1CCC2=O (stereo not drawn)  normalized growth           1.02
 9  CC(=O)O[C@H]1CC[C@@]2(C)C(=CCC3C2CC[C@@]2(C)C3CC[C@@H]2C(C)CCCC(C)C)C1 (stereo partly drawn)  normalized growth          0.992
10  C[C@@H]1C[C@@H]([C@H](O)CC2CC(=O)NC(=O)C2)C(=O)[C@@H](C)C1  normalized growth         0.0629
11  CC(=O)C1=C(O)C2C3c4c[nH]c5cccc(c45)CC3C(C)(C)N2C1=O (stereo not drawn)  normalized growth              1
12   CCOP(=S)(OCC)Oc1ccc2c(C)c(Cl)c(=O)oc2c1  normalized growth          0.998
13  CC1=C(/C=C/C(C)=C/C=C/C(C)=C\C(=O)O)C(C)(C)CCC1  normalized growth           1.01
14         COc1ccccc1-c1cc(=O)c2cccc(OC)c2o1  normalized growth           0.93
15  CC1=C(/C=C/C(C)=C/C=C/C(C)=C/C=C/C=C(C)/C=C/C=C(C)/C=C/C2=C(C)CCCC2(C)C)C(C)(C)CCC1  normalized growth           1.01
16                CS(=O)(=O)OCCCCOS(C)(=O)=O  normalized growth              1
17  O=C(/C=C/c1ccc(O)c(O)c1)O[C@@H]1C[C@](O)(C(=O)O)C[C@@H](O)[C@H]1O  normalized growth           1.01
18  C[C@H](COc1ccccc1)N[C@H](C)[C@H](O)c1ccc(O)cc1  normalized growth          0.986
19  CC1=C(/C=C/C(C)=C/C=C/C(C)=C/C(=O)O)C(C)(C)CCC1  normalized growth           1.01
20                        S=c1[nH]c2ccccc2s1  normalized growth          0.986
21                           O=C(O)P(=O)(O)O  normalized growth          0.983
22  C=CC1=C(C)/C(=C/c2[nH]c(Cc3[nH]c(/C=C4\NC(=O)C(C)=C4C=C)c(C)c3CCC(=O)O)c(CCC(=O)O)c2C)NC1=O  normalized growth           1.01
23  CC(COc1ccccc1)N(CCCl)Cc1ccccc1 (stereo not drawn)  normalized growth           1.01

====

Below, each of the compounds is paired with its reported normalized growth value.
experiment: chemical genetic growth profiling, strain panel (AID 1159580);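 note: tested at 20 µM; growth read once vehicle control cultures reached saturation at 30 °C; 1 = growth at the plate median or of vehicle wells; lower values mean less growth of the strain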; conditions: S. cerevisiae deletion strains, growth OD, locus YLR113W, strain HOG1, active compounds read low
In all, about 5,500 compounds went through this assay and about 2,000 (36%) were called active. Not shown: some 18% with an inconclusive outcome. The list shows a part of the results.
PROPERTY: normalized growth

> print(dat)
                                    compound  readout.value
 1    O=C(Nc1cccc(C(F)(F)F)c1)Oc1ccc(F)cc1Cl          0.762
 2  N#CC1=C(N)C(C#N)(C#N)C2(CCCCC2)C2CCCC=C12 (stereo not given)          0.959
 3  OC(c1ccc(C(F)(F)F)cc1)c1cccc(C(F)(F)F)c1 (stereo not given)          0.789
 4  CC(COc1ccccc1)N(CCCl)Cc1ccccc1 (stereo not given)          0.977
 5  OC1CCCCC1N1CCC(c2ccccc2)CC1 (stereo not given)          0.999
 6       CCOC(=O)NC(=S)NC12CC3CC(CC(C3)C1)C2          0.926
 7  O=C(NC(=O)c1c(F)cccc1F)Nc1cc(Cl)c(OC(F)(F)C(F)C(F)(F)F)cc1Cl (stereo not given)           1.01
 8     O=C(O)c1cc(=O)c(O)c2c(O)c(O)c(O)cc2c1          0.525
 9  CC1(C)O[C@@H]2CC3C4CCC5=CC(=O)C=C[C@]5(C)C4[C@@H](O)C[C@]3(C)[C@]2(C(=O)CO)O1 (stereo not given in full)          0.963
10  COC(=O)[C@H]1[C@H]2C[C@@H]3c4[nH]c5cc(OC)ccc5c4CCN3C[C@H]2C[C@@H](OC(=O)c2cc(OC)c(OC)c(OC)c2)[C@@H]1OC          0.971

====

test: chemical genetic growth profiling, strain panel (AID 1159580);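 note: tested at 20 µM; growth read once vehicle control cultures reached saturation at 30 °C; 1 = growth at the plate median or of vehicle wells; lower values mean less growth of the strain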; details: S. cerevisiae deletion strains, growth OD, locus YMR219W, strain ESC1, active compounds read low
In all, about 5,500 compounds went through this assay and about 2,000 (36%) were called active. Not shown: some 18% with an inconclusive outcome. Some of the results follow.
PROPERTY: normalized growth

> print(dat)
                                    compound           property  readout.value
 1              C/C(=N/NC1=NCCN1)c1ccc(F)cc1  normalized growth              1
 2            Cc1cccc2nc(-c3ccccc3)oc(=O)c12  normalized growth          0.976
 3  COc1ccc(CN(Cc2ccc(OC)cc2)C(=O)c2cccs2)cc1  normalized growth          0.992
 4                         COc1nc(N)nc(SC)n1  normalized growth          0.993
 5           COC(=O)c1ccc([N+](=O)[O-])cc1Cl  normalized growth          0.992
 6  Cc1ccc(-n2nc(-c3ccc(OC(F)(F)F)cc3)cc2NC(=O)Nc2ccc(OC(F)(F)F)cc2)cc1C  normalized growth           1.02
 7                CCC(=O)c1ccc(-c2ccccc2)cc1  normalized growth          0.957
 8          ON(Cc1c(F)cccc1Cl)Cc1c(F)cccc1Cl  normalized growth          0.988
 9                   O=C1CNC(=S)N1CCc1ccccn1  normalized growth          0.993
10  COC(=O)c1cc(OC)c(OC)cc1NS(=O)(=O)c1ccc(C)cc1  normalized growth              1
11                     S=c1[nH]c2ccccc2[nH]1  normalized growth          0.999
12  O=C1NC(c2c(F)cccc2Cl)Nc2ccccc21 (stereo unspecified)  normalized growth              1
13   COc1ccccc1NC(=O)N1CCCN(C(=O)c2cccs2)CC1  normalized growth           1.01
14                    BrC12CC3CC(CC(C3)C1)C2  normalized growth              1
15            O=C(O)CCS(=O)(=O)/C=C/c1ccccc1  normalized growth          0.991
16          COc1ccccc1N1CCN(Cc2ccc(F)cc2)CC1  normalized growth           1.01
